Assay: small-molecule microarray binders of probe aWnt5a, primary screen, biochemical, biotinylated probe, 635/667 nm fluorescence (AID 1113);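 note: score merges 667 nm fluorescence intensity with signal-to-noise per printed feature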
Conditions: higher = more signal
measurementName: composite z-score
Reply: number alone, nothing else.

Give me measured composite z-score, please, for this compound: C=CCN1C(=O)[C@]2(CC=C)N=C(c3ccc(OCCCO)cc3)O[C@@H]2c2ccccc21 0.123

Give me measured composite z-score, please, for this compound: CC(C)C(CO)N1C(=O)[C@]2(C)C3C(=O)OCCC/C=C\[C@H]3OC23C=CCN(c2ccc(Cl)cc2)C(=O)[C@@H]13 (some centres undefined) -0.131

Give me measured composite z-score, please, for this compound: COCCOC(=O)N1C(=O)[C@@]2(c3cc(C#CC4(O)CCCCCC4)ccc31)[C@H](C(N)=O)[C@H]1C(=O)O[C@H](c3ccccc3)[C@H](c3ccccc3)N1[C@@H]2c1ccccc1OCCO -0.0758

Give me measured composite z-score, please, for this compound: COC(=O)Cn1c(C(=O)N2CCCC2)cc2c1C[C@H]1CN(C(=O)c3ccccc3)[C@@](Cc3ccc(F)cc3)(C(=O)OC)[C@@H]21 -0.0405
